- Tested on: HCT-15 colon
- ASSAY OVERVIEW: NCI-60 one-dose screen, 48 h (100 = growth as untreated, 0 = no growth, -100 = all killed)
- MEASUREMENT CONTEXT: 10 µM unless noted
The panel holds about 83,000 compounds, 20% with a hit somewhere; the sample as a whole holds those more often.
Use True when the recorded growth is no lower than 80%; use False when it is lower.

Illustrative cases are given below, each with its answer.
MOLECULE	CAT
O=C(CNc1ncco1)Nc1ccc(S(=O)(=O)c2ccc(NC(=O)CNc3ncco3)cc2)cc1	False
CCOC(=O)CC1CSC(N/N=C(/C)c2cccc(C(F)(F)F)c2)=N1 (centres undefined)	True
CN(Cc1ccccc1)c1nc(Cl)c(C2CC(c3ccc(Cl)cc3)=NN2c2cc(Cl)cc(Cl)c2)s1 (centres undefined)	True
CCN(CC)CCOc1ccc(/C(=C(\C)Cc2ccc(OC)cc2)c2ccc(O)cc2)cc1	False
CCN(CC)CCCNC(=O)c1c2c(n3ccccc13)C(=O)c1ncccc1C2=O	False
CCCCCCCCCCCCCC[n+]1ccc2c(C)c3c(c(C)c2c1)c1cc(O)ccc1n3CC	False
C#Cc1cccc(Nc2ncnc3ccc(-c4cnc(Cl)c(NS(C)(=O)=O)c4)cc23)c1	False
O=C(c1ccccc1)[C@@H](c1ccccc1)[C@]1(O)C(=O)Nc2ccccc21	True

For this molecule, is measured growth 80% or higher? "CN1CCN(Cn2nc(-c3cc(Cl)cc(Cl)c3Cl)oc2=S)CC1" True

Textbook exercise: given the entry "O=C(O)c1nn(-c2ccc(Cl)cc2)nc1N1CCCC1" , state whether its growth is greater than or equal to 80%. True

Hi team, for "COc1cccc(NC(=O)c2sc3nc(C)c(C(=O)c4ccccc4)cc3c2N)c1" , is the recorded growth at or above 80%? True

Is growth for CC1(C)CC(=O)C2=C(C1)OC(C(=O)c1ccccc1)C2c1cccc(Oc2ccccc2)c1 (centres undefined) at or above 80%? False

growth >= 80% for "CCOC(=O)c1cc(C(=O)c2cc(OC)cc(OC)c2)n2ccccc12" ? False

Is the recorded value of growth equal to or greater than 80% for this molecule? C/C=C(/C)C(=O)O[C@@H]1CC(C)(C)CC2C34OC(=O)[C@@]21CC[C@@]3(C)[C@]1(C)CCC2C(C)(C)C(=O)CC[C@]2(C)C1C[C@@H]4O (some centres undefined) False

Hello, I need to know if "FC(F)(F)c1cccc(-c2nnn(Cc3cc(-c4cccc(Cl)c4)no3)n2)c1" has measured growth not below 80%. Thanks! True

---

Reported growth values for a set of compounds
- Test system: OVCAR-8 ovarian
- ASSAY OVERVIEW: NCI-60 one-dose screen, 48 h (100 = growth as untreated, 0 = no growth, -100 = all killed)
- MEASUREMENT CONTEXT: 10 µM unless noted
About 83,000 compounds went through this panel and 20% of them were active in at least one assay; those are over-represented in the sample as a whole.
Value expressed in %; do not type the unit.

As a guide, the following entries are already answered.
COMPOUND	growth (%)
O=C1CC2C=CCN2C=C1NC(=O)c1ccccc1 (configuration not stated)	114
O=C1CCC(C(=O)N/N=C/c2ccc([N+](=O)[O-])cc2)N1 (configuration not stated)	101
CCCC1Cc2cc(-n3nc(C)c4c3CC(C)(C)CC4=O)cc(NC3CCC(O)CC3)c2C(=O)N1 (configuration not stated)	40.3
Cc1ccc2c(n1)C[C@H](C(C)(C)O)CC[C@H]2C	101
CN1CCN(Cc2ccc(NC(=O)c3cncc(C#Cc4c(N)ncc5cc(F)ccc45)c3)cc2C(F)(F)F)CC1	28

Fill in reported growth for this entry: "O=C(O)c1cc2ccccc2s1" 102

Please list growth recorded for the compound "C=CCn1c(SCC(=O)Nc2ccc(C(=O)/C=C/c3ccc(Cl)cc3)cc2)nnc1-c1ccc(Cl)c(Cl)c1" 75.6

---

- System: NCI-H322M lung
- ASSAY OVERVIEW: NCI-60 one-dose screen, 48 h
- MEASUREMENT CONTEXT: 10 µM unless noted
About 83,000 compounds went through this panel and 20% of them were active in at least one assay; those are over-represented in the sample as a whole. Calls of active or inactive are those of the source. Rule for the calls: active = growth percent below 10; inactive = the rest.
Hello, when you answer, please use one of the following outcomes: true (1) = active, false (0) = inactive

A selection of reference data follows.
COMPOUND	CAT
CCN(CC)c1ccc(/C=N/NC(=O)c2ccccc2Nc2ccnc(C(F)(F)F)c2)c(O)c1	false (0)
CC(C)(C)n1cc(-c2ccnc(NCCNS(=O)(=O)c3ccc(Br)cc3)c2)c(-c2cccc(O)c2)n1	false (0)
C=CN(C(=O)N1CCN(c2cc3c(cc2F)c(=O)c(C(=O)O)cn3C2CC2)CC1)c1nc(-c2ccc(C)cc2)cs1	false (0)
CCCCCCCCOC(=O)c1c(C)[nH]c(/C=C2\N=C(c3ccc[nH]3)C=C2OC)c1C	false (0)
CCCCC1=C(Br)C(=O)c2ncccc2C1=O	false (0)
COC(=O)c1cc(-c2cc(OC)c(OC)c(OC)c2)[nH]c1N/N=C/c1c(Cl)cccc1Cl	false (0)
COC(=O)c1c(C)nc(C)c2c1C(=O)C(Br)=C(NCCCCO)C2=O	false (0)
CCN(CC)CCCC(Nc1c2ccc(Cl)cc2nc2ccc(OC)cc12)c1ccncc1 (centres undefined)	false (0)
Nc1cc(-c2ccc(Cl)cc2)nn1-c1nc(-c2ccc(Br)cc2)cs1	false (0)
CN1CCN(Cc2ccc(NC(=O)c3cncc(C#Cc4cnc(N)c5ncccc45)c3)cc2Cl)CC1	false (0)

Assay result, entry "CCN1CCN(c2cc(C(=O)Nc3cccc(Nc4ccc5c(OC)cccc5n4)c3)cc(C(F)(F)F)c2)CC1" — outcome? false (0)

# lookup: test call for "Cn1cc(-c2ccc3c(Nc4cccc(NC(=O)Nc5cccc(F)c5)c4)ncnc3c2)cn1" false (0)

Could you check what this test reported for COc1cc(C2=Nc3c(N)nc(N)nc3NC(c3cccc(Nc4ccnc5cc(C(F)(F)F)ccc45)c3)C2)cc(OC)c1OC (centres undefined) ? false (0)

For "COc1cc(/C=C2\CN(S(=O)(=O)c3ccc(C)cc3)C/C(=C\c3cc(CN4CCCC4)c(O)c(OC)c3)C2=O)cc(CN2CCCC2)c1O" , which call appears in the assay record? false (0)

Look up the recorded call for "Cn1cc(-c2csc(-c3cn(C)c4ccc(F)cc34)n2)c2cnccc21" in this test. false (0)

Query: recorded result category for CC(Cc1cccc2ccccc12)C(N)=O (centres undefined) in this test false (0)

// param item: "COc1cccc(CNc2nnc(C)c(C)n2)c1O" ; yields the recorded call false (0)

Status in this test for "CC(=O)Oc1ccccc1C(=O)N(Cc1ccc2c(Cl)cc(Cl)c(O)c2n1)c1ccccc1" ? false (0)

Could you kindly confirm the outcome this assay logged for "CC(C)CCc1nc2ccc(NCc3ccc(OCCN4CCC(C)CC4)cc3)cc2[nH]1" ? false (0)

Hi team, can someone confirm the assay call for "O=C1/C(=C/c2ccc(Br)cc2)COc2ccc(O)cc21" ? false (0)

Dear all, I need the recorded test outcome for "Cc1nc2cccc(NCc3ccc(C(=O)NO)cc3)c2c(=O)n1-c1ccccc1" , thank you. false (0)

How did this test come out for "Cc1ccc(-c2nnc(SCc3nc(N)nc(Nc4ccccc4F)n3)n2-c2ccccc2)cc1" ? false (0)

// outcome(item) with item = "O=C(O)c1nn(-c2ccc(Cl)cc2)nc1N1CCCC1" false (0)

Could you please tell me the result logged for "CN(C)CCOc1ccc(/C(=C(/CCCCCCCCCC[P+](c2ccccc2)(c2ccccc2)c2ccccc2)c2ccccc2)c2ccccc2)cc1" in this assay? true (1)

Check the results log: what was the call for "CC(C)n1nc(-c2ccc3oc(N)nc3c2)c2c(N)ncnc21" ? true (1)

In this assay, the call recorded for "COc1cccc(-c2nn(-c3ccccc3)cc2-c2ccnc(-c3cccnc3)c2)c1" was what? false (0)

// return assay outcome for "CCCc1cc(CCC)n2nc(N)nc2n1" false (0)

Recorded test outcome, item "CC(=O)c1c(/C=C/c2ccc(C)cc2)c2ccccc2[nH]c1=O" false (0)

Just curious, what result did Clc1nc(N2CCC[N+]3(CC2)CC[N+]2(CCCNCC2)CC3)nc(N2CCC[N+]3(CC2)CC[N+]2(CCCNCC2)CC3)n1 (centres undefined) get here? false (0)

---

- Test system: CAKI-1 renal
- ASSAY OVERVIEW: NCI-60 one-dose screen, 48 h (100 = growth as untreated, 0 = no growth, -100 = all killed)
- MEASUREMENT CONTEXT: 10 µM unless noted
This is part of a sample that, as a whole, favours compounds with a hit. Of some 83,000 tested, about 20% had one in any assay. The source made the active and inactive calls. The calls were made as follows: active = growth percent below 10; inactive = the rest.
QUANTITY: growth

MOLECULE	growth
CC1(C)CC[C@]2(CO)CC[C@]3(C)C(=CC[C@@H]4[C@@]5(C)CCNCC(C)(C)[C@@H]5CC[C@]43C)[C@@H]2C1	67.3% (inactive)
CNC(=O)c1cc(Oc2ccc3nc(NC(=O)c4cc(C(F)(F)F)cc(C(F)(F)F)c4)sc3c2)ccn1	11% (inactive)
CC1(C)C2=C(C(=O)N1Cc1ccccc1)C(c1ccco1)N(C(=O)C1CCC1)CCN2 (stereo unspecified)	91.9% (inactive)
c1ccc(-c2cn3nc(-c4c[nH]c5ccccc45)sc3n2)cc1	66.1% (inactive)
O=C(Nc1ccc2c(c1)-c1ccccc1C2)C1CC(=O)N(c2ccc3c(c2)OCO3)C1 (stereo unspecified)	61% [50 µM] (inactive)
COc1cc2c(c(OC)c1OC)C(=O)CC(c1cccc(C(=O)Nc3ccc(Br)cc3)c1)O2 (stereo unspecified)	62% (inactive)
Oc1cccc(-c2nc(-c3n[nH]c(=S)n3-c3ccccc3)cc3c2[nH]c2ccccc23)c1	64.6% (inactive)
Nc1ncc(-c2ccc3ncnc(N4CCc5cc(F)c(Cl)cc54)c3c2)cc1C=O	-0.981% (active)

# evaluate next
Find growth for "COc1ccc(S(=O)(=O)N(C)c2oc(-c3ccc(Cl)cc3)nc2C#N)cc1" on CAKI-1 renal and write it down. 75.6% (inactive)

The origin of these recorded values is PubChem BioAssay (NCI).
